pIC50: −log10 of the molar value.
From various publications: pIC50 for Tyrosine-protein kinase receptor UFO (Homo sapiens, UniProt P30530).

[
  {
    "QUERY SMILES": "CCCCC[C@H](C)Nc1ncc2c(NC3CCN(C)CC3)cc([C@H]3CC[C@H](O)CC3)n2n1",
    "pIC50": "≥ 7.00"
  },
  {
    "QUERY SMILES": "C[C@H](Nc1ncc2c(OC3CCNCC3)ncc([C@H]3CC[C@H](O)CC3)c2n1)c1ccccc1",
    "pIC50": "5.00 to 6.00"
  },
  {
    "QUERY SMILES": "COC[C@H](C)Nc1ncc2c(-c3cnn(C(C)(C)C(=O)N4Cc5nc(C)sc5C4)c3)cc([C@H]3CC[C@H](O)CC3)n2n1",
    "pIC50": "≥ 7.00"
  },
  {
    "QUERY SMILES": "COc1cc2nccc(Oc3ccc(NC(=O)c4ccc(C)n(-c5ncc(F)cc5C)c4=O)cc3F)c2nc1OC",
    "pIC50": "≥ 7.00"
  },
  {
    "QUERY SMILES": "COCCOc1nc(Nc2ccc(CN3CCN(C)CC3)cc2)nc2[nH]cc(-c3ccc(F)cc3F)c12",
    "pIC50": "> 7.52"
  },
  {
    "QUERY SMILES": "C[C@@H](Nc1ncc2c(-c3cnn(C4COC4)c3)cc([C@H]3CC[C@H](O)CC3)n2n1)C(F)(F)F",
    "pIC50": "6.00 to 7.00"
  },
  {
    "QUERY SMILES": "Cc1c(C(=O)Nc2ccc(Oc3ncnc4[nH]cc(-c5ccccc5)c34)c(F)c2)c(=O)c2cc(Br)ccc2n1C",
    "pIC50": 5.51
  },
  {
    "QUERY SMILES": "CNC(=O)c1cncc(-c2cc([C@H]3CC[C@H](O)CC3)n3nc(N[C@@H](C)COC)ncc23)c1",
    "pIC50": "6.00 to 7.00"
  },
  {
    "QUERY SMILES": "CCCCNc1ncc2c(NC3CCN(C)CC3)ncc([C@H]3CC[C@H](O)CC3)c2n1",
    "pIC50": "6.00 to 7.00"
  },
  {
    "QUERY SMILES": "O=C(O)[C@H]1CC[C@@H](Nc2ncc3c(OC4CCOCC4)ncc([C@H]4CC[C@H](O)CC4)c3n2)CC1",
    "pIC50": "5.00 to 6.00"
  },
  {
    "QUERY SMILES": "COC[C@H](C)Nc1ncc2c(-c3ccnc(C(F)(F)F)c3)cc([C@H]3CC[C@H](O)CC3)n2n1",
    "pIC50": "≥ 7.00"
  },
  {
    "QUERY SMILES": "Cc1cc(-c2cc([C@H]3CC[C@H](O)CC3)n3nc(N[C@@H](C)COC(F)F)ncc23)ccn1",
    "pIC50": "≥ 7.00"
  },
  {
    "QUERY SMILES": "C[C@@H](CC(F)(F)F)Nc1ncc2c(-c3cncc(C(=O)N4CCOCC4)c3)cc([C@H]3CC[C@H](O)CC3)n2n1",
    "pIC50": "≥ 7.00"
  },
  {
    "QUERY SMILES": "COC[C@H](C)Nc1ncc2c(-c3cnn([C@H]4CCN(C(C)=O)C4)c3)cc([C@H]3CC[C@H](O)CC3)n2n1",
    "pIC50": "≥ 7.00"
  }
]
